Source listed as paper PMC3936774.

assayed target: Ec Hfq Y25W (Escherichia coli, UniProt P0A6X3 1-102, Y25W)
assay: fluorescence polarization
outcome measure: Kd (nM)
Give the quantity in nM, number only.

Problem: Answer with reported Kd of UUUUUU (ssRNA) [U6 (fluorescein)]
Solution: 837
